# Protocol Text: logP measurement by HPLC on reversed phase columns (EEC directive 79/831 Annex V.A8)
# Type: physicochemical
# Condition Set: pH 2.7, pH 2,7 with 0,1 % formic acid in water and acetonitrile, linear gradient 10 % to 95 % acetonitrile

Compound	chromatographic logP
CCOC(=O)C(C#N)=C(OC(C)C(CC)CC)c1cccnc1Cl (stereo not drawn)	3.96
CCOC(=O)C(C#N)=C(O[C@@H](C)C(=O)OC)c1cccnc1Cl	2.4
CCOC(=O)C(C#N)=C(OC(C)C(C)C)c1scnc1Cl (stereo not drawn)	3.37
CCOC(=O)C(C#N)=C(OC(C)C1=NOCCO1)c1cccnc1Cl (stereo not drawn)	2.2
CCOC(=O)C(C#N)=C(SC(C)CC)c1cn(C)nc1C(F)F (stereo not drawn)	3.11
CCOC(=O)C(C#N)=C(OC(C)c1ccccn1)c1cccnc1Cl (stereo not drawn)	2.39
CCOC(=O)C(C#N)=C(SC(C)C(C)C)c1cccnc1Cl (stereo not drawn)	3.8
CCOC(=O)C(C#N)=C(SC(C)C(C)C)c1scnc1Cl (stereo not drawn)	3.79
CCOC(=O)C(C#N)=C(OC(C)c1ccc(Cl)nc1)c1cccnc1Cl (stereo not drawn)	2.9

* * *

# Protocol Text: logP measurement by HPLC on reversed phase columns (EEC directive 79/831 Annex V.A8)
# Type: physicochemical
# Condition Set: pH 2.7, pH 2,7 with 0,1 % formic acid in water and acetonitrile, linear gradient 10 % to 95 % acetonitrile
# if value of chromatographic logP reaches 3, tag Met; if it stays below, tag Not met

Compound	Classification
CCOC(=O)C(C#N)=C(OC(C)CC(C)(C)C)c1cccnc1Cl (stereo not drawn) [Example 4]	Met
C#CCC(C)OC(=C(C#N)C(=O)OCC)c1cccnc1Cl (stereo not drawn) [Example 10]	Not met
CCOC(=O)C(C#N)=C(SC(C)C(C)C)c1cn(C)nc1C(F)F (stereo not drawn) [Example 19]	Met
CCOC(=O)C(C#N)=C(OC(C)C=C(Cl)Cl)c1cccnc1Cl (stereo not drawn) [Example 26]	Met
CCCC(C)SC(=C(C#N)C(=O)OCC)c1cccnc1Cl (stereo not drawn) [Example 25]	Met
CCOC(=O)C(C#N)=C(SC(C)c1ccccn1)c1cccnc1Cl (stereo not drawn) [Example 17]	Not met
CCOC(=O)C(C#N)=C(OC(C)COC)c1cccnc1Cl (stereo not drawn) [Example 8]	Not met
CCOC(=O)C(C#N)=C(O[C@H](C)C(=O)OCC)c1cccnc1Cl [Example 13]	Not met
CCOC(=O)C(C#N)=C(OC(C)C(C)(C)C)c1cccnc1Cl (stereo not drawn) [Example 5]	Met
CCOC(=O)C(C#N)=C(OC1CCCCC1C)c1cccnc1Cl (stereo not drawn) [Example 21]	Met
CCOC(=O)C(C#N)=C(OC(C)C(C)C)c1ccnn1C(F)F (stereo not drawn) [Example 15]	Met
CCOC(=O)C(C#N)=C(OC1(C(=O)OCC)CC1)c1cccnc1Cl [Example 24]	Not met
CCOC(=O)C(C#N)=C(SC(C)C(C)C)c1ccnn1C(F)F (stereo not drawn) [Example 6]	Met
CCOC(=O)C(C#N)=C(OC(C)C(C)C)c1cccnc1Cl (stereo not drawn) [Example 7]	Met
